- Test method notes: Phase 1/2a study, plasma pharmacokinetics of PF-07104091
- Assay type: in vivo, human
- Experimental conditions: human, plasma, po, 150 mg, Cycle 1 Day 1, single oral dose; 150 mg BID monotherapy; geometric mean (CV %); read-out: Cmax
Measured parameter: Cmax (ng/mL)
Give bare numbers, in ng/mL.

q: Identify Cmax associated with the compound COCc1cc(C(=O)Nc2cc([C@H]3CC[C@@H](OC(=O)NC(C)C)C3)[nH]n2)n(C)n1 [PF-07104091]
a: 739

* * *

- Test method notes: Phase 1/2a study, plasma pharmacokinetics of PF-07104091
- Format: in vivo, human
- Experimental conditions: human, plasma, po, 225 mg, Cycle 1 Day 15, repeated BID oral; 225 mg BID monotherapy; median (range); read-out: Tmax
Measured parameter: Tmax (h)
Give bare numbers, in h.

q: State its Tmax for this molecule: "COCc1cc(C(=O)Nc2cc([C@H]3CC[C@@H](OC(=O)NC(C)C)C3)[nH]n2)n(C)n1"
a: 2

* * *

- Test method notes: Phase 1/2a study, plasma pharmacokinetics of PF-07104091
- Type: in vivo, human
- Experimental conditions: human, plasma, po, 150 mg, Cycle 1 Day 15, repeated BID oral; 150 mg BID monotherapy; geometric mean (CV %)
Measured parameter: AUC(0-t) (ng·h/mL)
Answers are plain numbers, in ng·h/mL.

q: Look up and state reported AUC(0-t) for COCc1cc(C(=O)Nc2cc([C@H]3CC[C@@H](OC(=O)NC(C)C)C3)[nH]n2)n(C)n1 [PF-07104091]
a: 8020

* * *

- Test method notes: Phase 1/2a study, plasma pharmacokinetics of PF-07104091
- Type: in vivo, human
- Experimental conditions: human, plasma, po, 75 mg, Cycle 1 Day 1, single oral dose; 75 mg BID (1C), with palbociclib and letrozole; arithmetic mean ± SD; read-out: t1/2 (converted)
Measured parameter: half-life (h)
Answers are plain numbers, in h.

q: Fill in half-life for record "COCc1cc(C(=O)Nc2cc([C@H]3CC[C@@H](OC(=O)NC(C)C)C3)[nH]n2)n(C)n1"
a: 1.6

* * *

- Test method notes: Phase 1/2a study, plasma pharmacokinetics of PF-07104091
- Type: in vivo, human
- Experimental conditions: human, plasma, po, 225 mg, Cycle 1 Day 1, single oral dose; 225 mg BID monotherapy; median (range); read-out: Tmax
Measured parameter: Tmax (h)
Give bare numbers, in h.

q: Supply reported Tmax belonging to this compound: "COCc1cc(C(=O)Nc2cc([C@H]3CC[C@@H](OC(=O)NC(C)C)C3)[nH]n2)n(C)n1"
a: 3.9

* * *

- Test method notes: Phase 1/2a study, plasma pharmacokinetics of PF-07104091
- Type: in vivo, human
- Experimental conditions: human, plasma, po, 225 mg, Cycle 1 Day 15, repeated BID oral; 225 mg BID monotherapy; arithmetic mean ± SD; read-out: t1/2 (converted)
Measured parameter: half-life (h)
Answers are plain numbers, in h.

q: Indicate the recorded half-life value for this compound: COCc1cc(C(=O)Nc2cc([C@H]3CC[C@@H](OC(=O)NC(C)C)C3)[nH]n2)n(C)n1 [PF-07104091]
a: 2.6

* * *

- Test method notes: Phase 1/2a study, plasma pharmacokinetics of PF-07104091
- Type: in vivo, human
- Experimental conditions: human, plasma, po, 300 mg, Cycle 1 Day 15, repeated BID oral; 300 mg BID monotherapy; median (range); read-out: Tmax
Measured parameter: Tmax
Please answer in the form of a number followed by its unit of measurement.

q: Using known records, supply Tmax for "COCc1cc(C(=O)Nc2cc([C@H]3CC[C@@H](OC(=O)NC(C)C)C3)[nH]n2)n(C)n1"
a: 2.1 h
